- measured target: T1, soluble heterodimeric hCD3ε/δ.mFc protein (human)
- T1 construct: also called soluble human CD3; soluble heterodimeric CD3 protein
- T1 chain 1: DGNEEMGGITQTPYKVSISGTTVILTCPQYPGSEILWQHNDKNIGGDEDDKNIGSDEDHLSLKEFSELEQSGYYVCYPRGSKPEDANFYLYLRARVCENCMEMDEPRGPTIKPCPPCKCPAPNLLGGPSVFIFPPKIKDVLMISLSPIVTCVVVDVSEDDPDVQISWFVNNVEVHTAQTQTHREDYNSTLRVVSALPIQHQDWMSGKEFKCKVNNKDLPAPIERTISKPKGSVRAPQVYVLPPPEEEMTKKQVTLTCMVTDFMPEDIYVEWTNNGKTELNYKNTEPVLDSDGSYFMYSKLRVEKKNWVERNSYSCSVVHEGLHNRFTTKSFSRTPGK
- T1 chain 2: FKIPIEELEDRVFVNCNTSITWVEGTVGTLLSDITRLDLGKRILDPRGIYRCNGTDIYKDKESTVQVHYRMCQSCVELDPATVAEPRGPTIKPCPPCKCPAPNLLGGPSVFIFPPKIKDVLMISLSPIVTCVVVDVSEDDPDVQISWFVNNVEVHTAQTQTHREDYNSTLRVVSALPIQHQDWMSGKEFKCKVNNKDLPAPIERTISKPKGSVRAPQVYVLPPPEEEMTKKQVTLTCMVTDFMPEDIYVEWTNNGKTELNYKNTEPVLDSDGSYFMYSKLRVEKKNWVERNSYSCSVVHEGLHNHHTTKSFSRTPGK
- experiment: SPR MASS-1, 37 C, antigen-capture (hCD3ε/δ.mFc captured), antibody injected
reported metric: kon (M⁻¹ s⁻¹)
Entry rule: numbers only, all in M⁻¹ s⁻¹.

Consider BSPSMA/CD3-1600 (bispecific antibody, IgG4, V domains shown, modified (chimeric) IgG4 Fc domain; also called PSMA-VH-11810 x CD3-VH-G16) VH 1: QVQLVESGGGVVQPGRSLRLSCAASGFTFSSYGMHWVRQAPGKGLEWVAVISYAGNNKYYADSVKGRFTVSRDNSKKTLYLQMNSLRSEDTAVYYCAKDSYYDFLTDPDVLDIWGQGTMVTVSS VH 2: EVQLVESGGGLVQPGRSLRLSCAASGFTFDDYSMHWVRQAPGKGLEWVSGISWNSGSKGYADSVKGRFTISRDNAKNSLYLQMNSLRAEDTALYYCAKDGSGYGKFYHYGMDVWGQGTTVTVSS VL: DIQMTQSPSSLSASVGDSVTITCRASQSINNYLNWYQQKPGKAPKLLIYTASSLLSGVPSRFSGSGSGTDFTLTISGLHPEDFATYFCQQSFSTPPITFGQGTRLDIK . Its measured kon is 64300

Consider BSPSMA/CD3-1200 (bispecific antibody, IgG4, V domains shown, modified (chimeric) IgG4 Fc domain; also called PSMA-VH-11810 x CD3-VH-G12) VH 1: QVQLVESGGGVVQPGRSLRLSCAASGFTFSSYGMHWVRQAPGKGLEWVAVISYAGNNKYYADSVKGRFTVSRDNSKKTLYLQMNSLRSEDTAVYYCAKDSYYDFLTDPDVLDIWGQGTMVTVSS VH 2: EVQLVESGGGLVQPGRSLRLSCAASGFTFDDYSMHWVRQAPGKGLEWVSGISWNSGSIGYADSVKGRFTISRDNAKNSLYLQMNSLRAEDTALYYCAKDGSGYGKFYHYGLDVWGQGTTVTVSS VL: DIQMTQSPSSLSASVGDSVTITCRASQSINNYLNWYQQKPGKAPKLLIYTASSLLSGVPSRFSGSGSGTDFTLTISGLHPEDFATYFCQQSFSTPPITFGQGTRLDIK . Its measured kon is 38500
